Test system: OVCAR-5 ovarian
protocol details: NCI tumour cell line growth inhibition, 48 h
Parameter TGI: see the listing below.

>>> result("CC(=O)OC(Cc1cc(C=C(C(F)(F)F)C(F)(F)F)cc(C)n1)(C(F)(F)F)C(F)(F)F")
"4.58 µM"
>>> result("O=C(NCCN(CCNC(=O)c1cccc(=O)n1O)CCN(CCNC(=O)c1cccc(=O)n1O)CCNC(=O)c1cccc(=O)n1O)c1cccc(=O)n1O")
"> 100 µM"
>>> result("COc1cc(/C(C#N)=C/c2ccc3c(c2OC)OCO3)cc2c1OCO2")
"> 80.2 µM"
>>> result("Nn1c(-c2ccccc2)nc2ccc(Br)cc2c1=O")
"> 100 µM"
>>> result("COc1ccc(CCn2cnc3ccccc32)cc1")
"> 100 µM"
>>> result("COC(=O)c1cc(C)ccc1CC(Cc1cccc(C)c1)C(=O)OC (stereo not drawn)")
"> 100 µM"
>>> result("Cc1c(C)c(C)c(-n2[nH]c(=O)n(C)c2=O)c(C)c1C")
"> 100 µM"
>>> result("O=C(c1ccccc1)C(C(=O)c1ccccc1)C1(O)C(=O)c2ccccc2C1=O")
"> 100 µM"

--- query ---
In: State the recorded TGI for this entry: Cc1ccc(C(=O)OC[C@H]2CC[C@@H](n3cc(N(C)C4CCCCC4)c(=O)[nH]c3=O)O2)cc1
Out: 81 µM

* * *

Test system: SW-620 colon
protocol details: NCI tumour cell line growth inhibition, 48 h
assay readout: TGI

>>> result("COc1ccc2cc(C(=O)/C=C/c3cc(OC)c(OC)c(OC)c3)ccc2c1")
"6.91 µM"

In: Quick one: TGI of c1ccc2c(-c3cnc(-c4c[nH]c5ccccc45)cn3)c[nH]c2c1 ?
Out: 47.9 µM

In: Next: CC1(C)OC2OC(COC(=O)C=[N+]=[N-])C3OC(C)(C)OC3C2O1 (configuration not stated)
Out: > 100 µM

In: Then what about the compound Cc1cc2c(c(C#N)c1C)NC(=O)CCC2=O ?
Out: > 100 µM

In: Quick one: CC(=O)C(C(C)=O)=C1CCCC(O)O1 (configuration not stated)
Out: > 100 µM

In: # repeat for COC(=O)C1CC2(CC3=C1CCCC3)OCCO2 (configuration not stated)
Out: > 100 µM

In: Would you mind doing O=C(CNc1nncs1)NO as well?
Out: > 100 µM

* * *

Parameter: TGI. Scope: all listed entries.
System: SK-OV-3 ovarian
protocol details: NCI tumour cell line growth inhibition, 48 h
Non-standard residues stand in square brackets, D forms with d. Residues, ends and D or L forms follow the SMILES beside them. *: point of attachment. ONb = O=[N+]([O-])c1ccc(CO*)cc1; AllylGly = C=CC[CH](N)C(=O)O; Boc = CC(C)(C)OC(=O)*

Study these solved cases before continuing.
>>> result("CC1=C(C)C(=O)c2c(cc3ccc4ccccc4n23)C1=O")
"> 100 µM"
>>> result("C=CCC(NC(=O)OC(C)(C)C)C(=O)NC(CCC(=O)OCc1ccc([N+](=O)[O-])cc1)C(N)=O (centres undefined) (Boc-[AllylGly]-Glu(ONb)-NH2; configuration not given here)")
"66.3 µg/mL"
>>> result("O=C(NNc1nc(Cl)nc(N2CCN(C(c3ccccc3)c3ccccc3)CC2)n1)c1ccccc1")
"6.94 µM"
>>> result("O=[N+]([O-])C1C(c2ccccc2)C12c1ccccc1-c1ccccc12 (centres undefined)")
"> 41.1 µM"

From here, focus on the item given below.
In: Lab note: need TGI with SK-OV-3 ovarian for entry CC(=O)O/C=C\OC1CCCC1(c1ccccc1)c1ccccc1 (centres undefined) , please look it up.
Out: 27.6 µM

* * *

Test system: RXF 393 renal
protocol details: NCI tumour cell line growth inhibition, 48 h
Readings of TGI for the listed compounds
Write the value in µM as a bare number.

>>> readout_number("Cn1c(=O)nc2n(-c3ccc(Cl)cc3)c3ccc(Cl)cc3nc-2c1=O")
7.93

Now for another entry.
In: So what TGI did Cc1ccc([N+](=O)[O-])cc1S(=O)(=O)Nc1ccc(C2=NN(c3ccc([N+](=O)[O-])cc3[N+](=O)[O-])C(c3ccccc3)C2)cc1 (centres undefined) get with RXF 393 renal?
Out: 33.4

* * *

System: A549 NSCLC
protocol details: NCI tumour cell line growth inhibition, 48 h
assay readout: TGI

Solved cases below.
>>> result("N#CC1=C2Sc3ccccc3N2[C@H](c2ccccc2)[C@H]2COC(=O)[C@@H]12")
"> 100 µM"
>>> result("CCOC(C[Se]CC(OCC)OCC)OCC")
"> 100 µM"
>>> result("CC(=O)O[C@H]1CC[C@@]2(C)C(=CC[C@@H]3[C@@H]2CC[C@]2(C)C(c4cccnc4)=CC[C@@H]32)C1")
"> 100 µM"
>>> result("CC(C)(CN)CN")
"> 100 µM"
>>> result("O=C(NNc1nc(Cl)nc(N2CCN(C(c3ccccc3)c3ccccc3)CC2)n1)c1ccccc1")
"30.5 µM"

In: Form: Entry = O=C(Nc1ccccc1)O/N=C(/CBr)c1ccccc1 | System = A549 NSCLC | TGI = ____
Out: > 100 µM

In: Can you check O=[N+]([O-])c1cccc(-c2csc(N=Nc3c(O)[nH]c4ccccc34)n2)c1 next?
Out: 44 µM

In: Request: CC(=O)OC(Cc1cc(C=C(C(F)(F)F)C(F)(F)F)cc(C)n1)(C(F)(F)F)C(F)(F)F
Out: 12.4 µM

* * *

Measured TGI of individual entries
Test system: OVCAR-5 ovarian
protocol details: NCI tumour cell line growth inhibition, 48 h

Take a look at these entries with their results.
>>> result("CSc1c(C(=O)Nc2ccccc2)c(N)nn1-c1ccccc1")
"> 100 µM"
>>> result("Oc1ccc(/C=C\\c2nnc(/C=C\\c3ccc(O)c(O)c3)s2)cc1O")
"> 86.5 µM"
>>> result("O=C(CCCn1cnc([N+](=O)[O-])n1)NCCn1ccnc1[N+](=O)[O-]")
"> 100 µM"
>>> result("CC(C)(CN)CN")
"> 100 µM"
>>> result("CN1CC2=C(OC(N)=C(C#N)C2c2cccs2)/C(=C/c2cccs2)C1 (centres undefined)")
"> 100 µM"
>>> result("O=C(NNc1nc(Cl)nc(N2CCN(C(c3ccccc3)c3ccccc3)CC2)n1)c1ccccc1")
"40.7 µM"
>>> result("Cc1c2c(nn1-c1ccc(S(=O)(=O)NC(=S)Nc3ccccc3)cc1)-c1ccccc1CC2")
"> 50 µM"
>>> result("CCCCOC(=O)CNC(=O)OCCCCC#CC#CCCCCOC(=O)NCC(=O)OCCCC")
"> 100 µM"

In: Give its TGI value. Item: CCN(CC)CCOc1nc2ccc(OC)cc2c2c1-c1ccc(OC)cc1C2=O
Out: 7.2 µM

In: Can you handle COc1cc(C2CC(c3ccc(C)cc3)=NN2C=O)ccc1Oc1ccnc2cc(Cl)ccc12 (centres undefined) next?
Out: > 50 µM

In: // next record CCC(C)[C@H](NC(=O)N[C@H](C)c1ccccc1)C(=O)OC (some centres undefined)
Out: > 100 µM

In: Next compound: Cc1c(-c2c(C)c3ccccc3n2S(=O)(=O)c2ccccc2)n(S(=O)(=O)c2ccccc2)c2ccccc12
Out: > 100 µM

In: What would you report for O=[N+]([O-])c1cccc(-c2csc(N=Nc3c(O)[nH]c4ccccc34)n2)c1 ?
Out: > 100 µM

In: Field entry: CCN(CC)Cc1nc2sc3c(c2c(=O)n1-c1ccccc1)CCCC3
Out: 63.1 µM

* * *

# maps each entry to its TGI
System: SK-OV-3 ovarian
protocol details: NCI tumour cell line growth inhibition, 48 h

>>> result("N#CC1=C2Sc3ccccc3N2[C@H](c2ccccc2)[C@H]2COC(=O)[C@@H]12")
"> 100 µM"
>>> result("c1ccc2c(-c3cnc(-c4c[nH]c5ccccc45)cn3)c[nH]c2c1")
"> 100 µM"
>>> result("COc1cc([C@H]2c3cc4c(cc3O[C@@]3(O)COC(=O)[C@@H]23)OCO4)cc(OC)c1OC")
"> 100 µM"
>>> result("COc1cc2c3c(n(C)c(=O)c2cc1OC)-c1cc2c(cc1/C3=C\\CCCCCN)OCO2")
"44.7 µM"
>>> result("CCOC(=O)[C@@]1(C)C=C2O[C@@H]3OC4(CCCCC4)O[C@@H]3C2=C2C(O)=CC=C(O)[C@]21C(=O)OC")
"> 68 µM"

In: Fill in the blank: the reported TGI of O=C(CCCn1cnc([N+](=O)[O-])n1)NCCn1ccnc1[N+](=O)[O-] is ____.
Out: > 100 µM

In: Another compound to look at: COC(=O)CCCc1ccc2c(c1)CC1(C2)Cc2cc3c(cc2C1)CCCC3
Out: > 100 µM

In: Proceed to OC(C1CCC=NN1C(O)(C(F)(F)F)C(F)(F)F)(C(F)(F)F)C(F)(F)F (centres undefined)
Out: > 10 µM

In: Now consider CCCCOC(=O)CNC(=O)OCCCCC#CC#CCCCCOC(=O)NCC(=O)OCCCC and answer again.
Out: > 100 µM

In: Entry to check: Cc1ncc(CN=Cc2ccc(Cl)cc2)c(N)n1
Out: > 100 µM

In: Now give it for O=C(Nc1ccccc1)O/N=C(/CBr)c1ccccc1 too.
Out: 95 µM

In: # iterate: CN(C)c1ccc(/C=N/Nc2nc3ccccc3c(=O)n2-c2ccccc2)cc1
Out: > 100 µM

In: Note, next up: CC1(C)OP23(NC(=O)OC2(C(F)(F)F)c2ccccc2O3)OC1(C)C (centres undefined)
Out: > 100 µM

In: Same read-out for COc1cc(C2C=C(c3cccc(NC(C)=O)c3)Nc3ncnn32)cc(OC)c1OC (centres undefined) ?
Out: > 100 µM
